- target.under.test: recombinant human secretory phospholipase A2 (Homo sapiens, UniProt P14555)
- Sequence (P14555 21-144): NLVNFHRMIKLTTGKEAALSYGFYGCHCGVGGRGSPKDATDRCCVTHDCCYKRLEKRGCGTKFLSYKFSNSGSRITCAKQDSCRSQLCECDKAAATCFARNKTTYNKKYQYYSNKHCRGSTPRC
- test.summary: Inhibition Test of Human Secretory Phospholipase A2 (chromogenic assay)
- Type: biochemical
- settings: sPLA2 50 ng/well, 40° C., 30 minutes, OD 405 nm, 96 well microtiterplate
Hi there, I'd appreciate the recorded pIC50 for every entry that follows.
One number for each entry, as −log10 of the molar value.

Some solved cases for reference:
CCc1c(C(=O)C(N)=O)c2c(OCC(=O)O)nc(C)cn2c1Cc1ccccc1Oc1ccccc1 ... 8.22
CCc1c(C(=O)C(N)=O)c2c(OCC(=O)O)nc(C)cn2c1Cc1ccc(F)cc1F ... 7.55
CCc1c(C(=O)C(N)=O)c2c(OCC(=O)OC)nc(C)cn2c1Cc1ccccc1C#Cc1ccccc1 ... 7.23

Task: Given `CCc1c(C(=O)C(N)=O)c2c(OCC(=O)O)nc(C)cn2c1Cc1ccccc1-c1ccc(C)cc1` , respond with its pIC50.
Result: 8.30
